target: UniProt:P11229; experiment: hM1 antagonist calcium mobilization assay; assay type: cell-based; conditions: hM1, versus ML012
attribute_measured: fold loss in potency/activity relative to ML012

For reference, reported fold loss in potency/activity relative to ML012 for CN(CCC(=O)N1CCN(c2ccncc2)CC1)S(=O)(=O)c1cccc2nsnc12 [Compound 12] stands at greater than 14 fold

For reference, reported fold loss in potency/activity relative to ML012 for O=S(=O)(NCCCN1CCN(c2ccncc2)CC1)c1cccc2nsnc12 [Compound 7] stands at greater than 14 fold

For reference, reported fold loss in potency/activity relative to ML012 for O=C(CCNS(=O)(=O)c1cccc2nonc12)N1CCN(c2ccncc2)CC1 [Compound 13b] stands at 4 fold

* * *

molecular target: hM1 (Homo sapiens, UniProt P11229); experiment: hM1 antagonist calcium mobilization assay; assay type: cell-based
Sequence (P11229 whole entry): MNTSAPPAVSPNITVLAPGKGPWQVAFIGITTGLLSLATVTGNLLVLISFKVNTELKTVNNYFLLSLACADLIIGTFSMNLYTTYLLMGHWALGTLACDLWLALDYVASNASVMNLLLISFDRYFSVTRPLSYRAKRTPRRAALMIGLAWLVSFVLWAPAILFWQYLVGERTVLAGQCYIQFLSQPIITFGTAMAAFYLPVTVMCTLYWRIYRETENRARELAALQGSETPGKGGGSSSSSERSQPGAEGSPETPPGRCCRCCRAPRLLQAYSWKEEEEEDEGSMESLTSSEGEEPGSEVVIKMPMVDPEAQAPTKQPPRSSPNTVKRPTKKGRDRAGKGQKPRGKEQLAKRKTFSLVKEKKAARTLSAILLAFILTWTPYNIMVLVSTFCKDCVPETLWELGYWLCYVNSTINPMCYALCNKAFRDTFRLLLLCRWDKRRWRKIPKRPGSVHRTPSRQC
attribute_measured: pIC50
Recall that pIC50 is obtained by taking minus log10 of the concentration measured in molar.

For reference, reported pIC50 for O=C(CCNS(=O)(=O)c1cccc2nonc12)N1CCN(c2ccncc2)CC1 [Compound 13b] stands at 5.35

* * *

Biological target: rM1 (Rattus norvegicus, UniProt P08482)
Sequence (P08482 1-460): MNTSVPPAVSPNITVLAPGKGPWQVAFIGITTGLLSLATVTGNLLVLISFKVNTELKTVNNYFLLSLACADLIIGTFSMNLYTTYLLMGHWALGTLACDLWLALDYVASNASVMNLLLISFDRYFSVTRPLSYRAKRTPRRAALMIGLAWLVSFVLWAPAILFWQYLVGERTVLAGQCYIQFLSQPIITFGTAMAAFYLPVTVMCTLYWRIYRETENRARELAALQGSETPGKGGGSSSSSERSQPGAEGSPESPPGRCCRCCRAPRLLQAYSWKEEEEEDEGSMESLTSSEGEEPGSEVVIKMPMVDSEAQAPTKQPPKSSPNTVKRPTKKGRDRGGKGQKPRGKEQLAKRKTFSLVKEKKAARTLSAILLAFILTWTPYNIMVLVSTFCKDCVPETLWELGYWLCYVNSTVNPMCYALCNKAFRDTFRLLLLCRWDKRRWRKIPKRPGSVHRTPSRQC
Assay: rat M1 antagonist calcium mobilization assay
Format: cell-based
attribute_measured: pEC50
Recall that pEC50 is obtained by taking minus log10 of the concentration measured in molar.

// assay rM1 (Rattus norvegicus, UniProt P08482), entry O=C(CCNS(=O)(=O)c1cccc2nsnc12)N1CCN(c2ccncc2)CC1 [ML012] , pEC50 value = 6.62

More entries:
// assay rM1 (Rattus norvegicus, UniProt P08482), entry O=C(CCNS(=O)(=O)c1cccc2ncccc12)N1CCN(c2ccncc2)CC1 [Compound 13l] , pEC50 value = 6.74

Source: paper PMC3434972
